experiment: Cmax in FVB mouse at 30 mg/kg, administered through oral gavage as single dose by LC-MS analysis; type: ADME, organism-based; set-up: dose 30 mg/kg, route oral; conditions: in vivo

| molecule | Cmax / nM |
| --- | --- |
| CC(C)(N)CNC(=O)C[C@H]1CC[C@]2(CC1)OOC1(O2)C2CC3CC(C2)CC1C3 (stereo not given in full) | 776 |
| c1cc([C@H]2CC[C@]3(CC2)OOC2(O3)C3CC4CC(C3)CC2C4)ccc1OCC1CCNCC1 (stereo not given in full) | 465 |
| c1cc([C@H]2CC[C@]3(CC2)OOC2(O3)C3CC4CC(C3)CC2C4)ccc1OCCN1CCNCC1 (stereo not given in full) | 752 |
| c1cc([C@H]2CC[C@]3(CC2)OOC2(O3)C3CC4CC(C3)CC2C4)ccc1OCCOC1CCNCC1 (stereo not given in full) | 633 |
| c1cc([C@H]2CC[C@]3(CC2)OOC2(O3)C3CC4CC(C3)CC2C4)ccc1OCCC1CCNCC1 (stereo not given in full) | 1190 |

* * *

experiment: Plasma concentration in rat at 300 mg/kg, po administered every third day for 5 doses measured after 2 weeks; type: ADME, organism-based
Form field: concentration at 336 h (one value per entry).

| compound | concentration at 336 h |
| --- | --- |
| [O-][S+]1CCN(CCCOc2ccc([C@H]3CC[C@]4(CC3)OOC3(O4)C4CC5CC(C4)CC3C5)cc2)CC1 (some centres undefined) | 1000 to 2000 ng/mL |
| c1cc([C@H]2CC[C@]3(CC2)OO[C@]2(O3)C3CC4CC(C3)CC2C4)ccc1OCCN1CCOCC1 [ARTEFENOMEL] | 6300 ng/mL |
| CC(C)(O)CNCCCOc1ccc([C@H]2CC[C@]3(CC2)OOC2(O3)C3CC4CC(C3)CC2C4)cc1 (some centres undefined) | > 1900 ng/mL |
| CC(C)(O)CN1CCC(Oc2ccc([C@H]3CC[C@]4(CC3)OOC3(O4)C4CC5CC(C4)CC3C5)cc2)CC1 (some centres undefined) | 1000 to 2000 ng/mL |

* * *

solubility kinetic at 0.5 h values by entry
assay: Kinetic solubility of the compound in water after 30 mins by nephelometric analysis; format: physicochemical; conditions: read-out: Kinetic_solubility

| molecule | solubility kinetic at 0.5 h |
| --- | --- |
| O[C@H]1CC[C@H](NCCCOc2ccc([C@H]3CC[C@]4(CC3)OOC3(O4)C4CC5CC(C4)CC3C5)cc2)CC1 (stereo partly drawn) | > 100 µg/mL |
| c1cc([C@H]2CC[C@]3(CC2)OO[C@]2(O3)C3CC4CC(C3)CC2C4)ccc1OCCN1CCOCC1 [ARTEFENOMEL] | < 1.6 µg/mL |
| NCCOc1ccc([C@H]2CC[C@]3(CC2)OOC2(O3)C3CC4CC(C3)CC2C4)cc1 (stereo partly drawn) | > 100 µg/mL |
| c1ccc([C@H]2CC[C@]3(CC2)OOC2(O3)C3CC4CC(C3)CC2C4)c(OCCN2CCOCC2)c1 (stereo partly drawn) | 3.1 to 6.3 µg/mL |
| c1cc([C@H]2CC[C@]3(CC2)OOC2(O3)C3CC4CC(C3)CC2C4)ccc1OCCN1CCNCC1 (stereo partly drawn) | > 100 µg/mL |
| CC1(C)CC(O)(COc2ccc([C@H]3CC[C@]4(CC3)OOC3(O4)C4CC5CC(C4)CC3C5)cc2)CC(C)(C)N1 (stereo partly drawn) | > 100 µg/mL |
| c1cc([C@H]2CC[C@]3(CC2)OOC2(O3)C3CC4CC(C3)CC2C4)ccc1OCCN1CCCCC1 (stereo partly drawn) | 6.3 to 12.5 µg/mL |
| c1cc([C@H]2CC[C@]3(CC2)OOC2(O3)C3CC4CC(C3)CC2C4)ccc1CN1CCOCC1 (stereo partly drawn) | 1.6 to 3.1 µg/mL |
